# Test system: HER-2 (Homo sapiens)
# Construct: His6 with thrombin site (N)
# Sequence (P04626 679-1255): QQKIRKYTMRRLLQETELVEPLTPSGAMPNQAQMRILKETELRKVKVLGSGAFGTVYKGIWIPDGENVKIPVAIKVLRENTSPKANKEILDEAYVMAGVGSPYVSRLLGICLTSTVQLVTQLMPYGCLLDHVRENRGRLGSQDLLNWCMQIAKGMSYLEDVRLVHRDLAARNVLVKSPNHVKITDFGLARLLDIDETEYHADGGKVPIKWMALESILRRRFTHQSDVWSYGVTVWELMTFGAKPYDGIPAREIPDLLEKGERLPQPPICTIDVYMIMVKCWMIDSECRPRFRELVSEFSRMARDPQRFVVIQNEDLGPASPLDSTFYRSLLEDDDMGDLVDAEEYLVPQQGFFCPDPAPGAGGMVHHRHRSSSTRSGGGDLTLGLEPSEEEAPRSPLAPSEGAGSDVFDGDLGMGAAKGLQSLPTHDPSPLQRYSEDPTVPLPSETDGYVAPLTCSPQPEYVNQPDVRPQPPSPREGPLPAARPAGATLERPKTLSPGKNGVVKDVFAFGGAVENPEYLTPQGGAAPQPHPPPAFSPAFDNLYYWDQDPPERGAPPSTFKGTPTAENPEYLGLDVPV
# Test description: HER-2 Kinase Assay
# Details: value in parentheses
# Protocol: The HER-2 kinase used was purified at Proqinase (Freiburg, Germany) from a construct that consisted of a fusion of GST (Glutathione-S-Transferase), HIS6-Thrombin and the nucleotides encoding amino acids 679 to 1255 of HER-2 (Accession Number M11730). […] The reaction plates were incubated at 30° C. for 1 hr. […] The plates were then sealed and read on the TopCount scintillation counter. […]
Define the label as 1 (yes) when IC50 is strictly less than 400 nM and as 0 (no) in all remaining cases.

Compound | Test system | Label value
O=C(Nc1cccc(CN2CCOCC2)c1)c1sc2ncnc3c2c1NC(=O)N3c1ccc(Oc2ccccc2)cc1 [Cpd 220] | HER-2 (Homo sapiens) | 1 (yes)
Cc1ccc(Br)cc1N1C(=O)Nc2c(C(=O)NC3CCN(C)CC3)sc3ncnc1c23 [Cpd 117] | HER-2 (Homo sapiens) | 0 (no)
O=C(NCCCO)c1sc2ncnc3c2c1NC(=O)N3c1ccc(Oc2ccccc2)c(Cl)c1 [Cpd 137] | HER-2 (Homo sapiens) | 0 (no)
O=C(Nc1ccc(CN2CCCCC2)cc1)c1sc2ncnc3c2c1NC(=O)N3c1ccc(Oc2cccnc2)cc1 [Cpd 238] | HER-2 (Homo sapiens) | 0 (no)
O=C(Nc1ccc(CN2CCCCC2)cc1)c1sc2ncnc3c2c1NC(=O)N3c1ccc(Oc2cccnc2)c(Cl)c1 [Cpd 209] | HER-2 (Homo sapiens) | 1 (yes)
O=C(Nc1ccc(CN2CCCCC2)cc1)c1sc2ncnc3c2c1NC(=O)N3c1ccc(Sc2ccccc2)cc1 [Cpd 169] | HER-2 (Homo sapiens) | 1 (yes)

Now for another entry.
Is IC50 of COc1ccc(C(=O)c2sc3ncnc4c3c2NC(=O)N4c2ccc(Oc3ccccc3)cc2)cc1OC [Cpd 202] strictly below 400 nM?
0 (no)

The origin of these recorded values is patent US7579356B2.
